Tested on: HOS
PROTOCOL_DETAILS: In vitro tumor cell growth inhibitory activity against Human osteosarcoma cell lines. HOS
Format: functional, cell-based

{"SMI": "C#C[C@]1(O)[C@@H](CO)O[C@@H](n2ccc(=O)[nH]c2=O)[C@@H]1O", "UNIT_ANNOTATION": "nM", "IC50": 1800}
{"SMI": "C#C[C@]1(O)[C@@H](CO)O[C@@H](n2ccc(N)nc2=O)[C@@H]1O", "UNIT_ANNOTATION": "nM", "IC50": 1000}

###

Recorded IC50 values for a group of molecules are listed next.
Test system: NAKAJIMA
PROTOCOL_DETAILS: In vitro tumor cell growth inhibitory activity against Human stomach (adenocarcinoma) cell lines. h) NAKAJIMA
Format: functional, cell-based

{"SMI": "C#C[C@]1(O)[C@@H](CO)O[C@@H](n2ccc(=O)[nH]c2=O)[C@@H]1O", "IC50, nM": 780}
{"SMI": "C#C[C@]1(O)[C@@H](CO)O[C@@H](n2ccc(N)nc2=O)[C@@H]1O", "IC50, nM": 170}

###

System: SW480
PROTOCOL_DETAILS: In vitro tumor cell growth inhibitory activity against i Human colon (adenocarcinoma) cell lines. SW-480
Format: functional, cell-based

{"SMI": "C#C[C@]1(O)[C@@H](CO)O[C@@H](n2ccc(N)nc2=O)[C@@H]1O", "UNIT_ANNOTATION": "µM", "IC50": 0.26}

Provenance of the data: ChEMBL document CHEMBL1129576
